For each record, write down the corresponding pest or weed control at 80 g/ha.
System: AVEFA
experimental.details: Post-emergence herbicidal action against AVEFA
Type: in vivo, Avena fatua
assay.conditions: Avena fatua, 504 h, 80 g/ha, visual assessment about 3 weeks after treatment, 100% = plants have died, 0% = like control plants
Hi! Could you send only the number? It should be in %, unit omitted.

Look up pest or weed control at 80 g/ha: "CNC(=O)c1c(C(F)(F)F)ccc(C(=O)Nc2nnc(C)o2)c1Cl" 100

Record request: pest or weed control at 80 g/ha value, item "Cc1nnc(NC(=O)c2ccc(C(F)(F)F)c(C(N)=O)c2Cl)o1" 80

What pest or weed control at 80 g/ha value was documented for this molecule, "CCn1nnnc1NC(=O)c1ccc(C(F)F)c(C(=O)NC)c1Cl" ? 100

State the recorded pest or weed control at 80 g/ha for this entry: "CNC(=O)c1c(C(F)F)ccc(C(=O)Nc2nnnn2C)c1Cl" 90

Give the measured pest or weed control at 80 g/ha of "CCNC(=O)c1c(C(F)(F)F)ccc(C(=O)Nc2nnc(C)o2)c1Cl" . 90

What pest or weed control at 80 g/ha value was documented for this molecule, "CNC(=O)c1c(C(F)(F)F)ccc(C(=O)Nc2nnnn2C)c1SC" ? 90
